- Test system: KYSE-520 (Esophageal Squamous Cell Carcinoma)
- ASSAY: combination Emax (second highest fraction inhibited in the dose matrix, 72 h); higher = more inhibition; extreme values may be limits of the assay
EXPERIMENTAL_ENDPOINT: combination Emax
Numbers only.

Answered examples (3):
- COMPOUND: "Cc1c2c(nn1C)CSCc1cc(n(C)n1)CSc1cc(c3ccccc3c1)OCCCc1c(C(=O)O)n(C)c3c-2c(Cl)ccc13 [AZD5991] + CC1(C)CCC(CN2CCN(c3ccc(C(=O)NS(=O)(=O)c4ccc(NCC5CCOCC5)c([N+](=O)[O-])c4)c(Oc4cnc5[nH]ccc5c4)c3)CC2)=C(c2ccc(Cl)cc2)C1 [Venetoclax] (first compound max 1 µM, 7x7, partner max 1 µM)"
  RESULT_VALUE: 0.183
- COMPOUND: "CC(=O)c1c(C)c2cnc(Nc3ccc(N4CCNCC4)cn3)nc2n(C2CCCC2)c1=O [Palbociclib] + CC1(C)CCC(CN2CCN(c3ccc(C(=O)NS(=O)(=O)c4ccc(NCC5CCOCC5)c([N+](=O)[O-])c4)c(Oc4cnc5[nH]ccc5c4)c3)CC2)=C(c2ccc(Cl)cc2)C1 [Venetoclax] (first compound max 10 µM, 7x7, partner max 1 µM)"
  RESULT_VALUE: 0.114
- COMPOUND: "Cc1c2c(nn1C)CSCc1cc(n(C)n1)CSc1cc(c3ccccc3c1)OCCCc1c(C(=O)O)n(C)c3c-2c(Cl)ccc13 [AZD5991] + C1CN(CCC1(C(=O)N[C@@H](CCO)C2=CC=C(C=C2)Cl)N)C3=NC=NC4=C3C=CN4 [Capivasertib] (first compound max 1 µM, 7x7, partner max 3 µM)"
  RESULT_VALUE: 0.433

# map each compound to its combination Emax
1. COc1cc2ncnc(Nc3ccc(F)c(Cl)c3)c2cc1OCCCN1CCOCC1 [Gefitinib] + CC(C)n1c(=O)n(C)c2cnc3cc(F)c(-c4ccc(OCCCN5CCCCC5)nc4)cc3c21 [AZD1390] (first compound max 10 µM, 7x7, partner max 0.3 µM)
2. CC1(C)CCC(CN2CCN(c3ccc(C(=O)NS(=O)(=O)c4ccc(NCC5CCOCC5)c([N+](=O)[O-])c4)c(Oc4cnc5[nH]ccc5c4)c3)CC2)=C(c2ccc(Cl)cc2)C1 [Venetoclax] + Cn1cnc2c(F)c(Nc3ccc(Br)cc3Cl)c(C(=O)NOCCO)cc21 [Selumetinib] (first compound max 1 µM, 7x7, partner max 3 µM)
3. COc1cccc(OCCCN)c1-c1cc(Nc2cnc(C#N)cn2)n[nH]1 [Prexasertib] + O=C(c1cc(Cc2n[nH]c(=O)c3ccccc23)ccc1F)N1CCN(C(=O)C2CC2)CC1 [Olaparib] (first compound max 1 µM, 7x7, partner max 10 µM)
4. COc1nnc2ccc(N3CCC(c4ccc(OCCN5CCN(C)C(=O)[C@H]5C)cc4)CC3)nn12 [AZD5153] + C[C@@H]1COCCN1C2=NC(=NC(=C2)C3(CC3)[S@](=N)(=O)C)C4=C5C=CNC5=NC=C4 [AZD6738] (first compound max 1 µM, 7x7, partner max 10 µM)

1. 0.556
2. 0.299
3. 0.548
4. 0.681

* * *

- System: TCCSUP (Bladder Carcinoma)
- ASSAY: combination Emax (second highest fraction inhibited in the dose matrix, 72 h); higher = more inhibition; extreme values may be limits of the assay
EXPERIMENTAL_ENDPOINT: combination Emax
Give bare numbers.

- COMPOUND: "COc1cccc(OCCCN)c1-c1cc(Nc2cnc(C#N)cn2)n[nH]1 [Prexasertib] + Cc1cc2ncnn2cc1Nc1ncc2c(n1)n(C1CCOCC1)c(=O)n2C [AZD7648] (first compound max 1 µM, 7x7, partner max 10 µM)"
  combination Emax: 0.704

Could you tell me combination Emax for each of these compounds? They are listed below.
1. CN(C)CCCOc1ccc(-c2ccc3ncc4c(c3c2)n(C2CCOCC2)c(=O)n4C)cn1 [AZD0156] + C=CCn1c(=O)c2cnc(Nc3ccc(N4CCN(C)CC4)cc3)nc2n1-c1cccc(C(C)(C)O)n1 [AZD1775] (first compound max 1 µM, partner max 1 µM)
2. NC1(C(=O)N[C@@H](CCO)c2ccc(Cl)cc2)CCN(c2ncnc3[nH]ccc23)CC1 [Capivasertib] + COc1nnc2ccc(N3CCC(c4ccc(OCCN5CCN(C)C(=O)[C@H]5C)cc4)CC3)nn12 [AZD5153] (first compound max 10 µM, 7x7, partner max 1 µM)

1. 0.356
2. 0.35

Looking up CN(CCO)CC[C@H](CSc1ccccc1)Nc1ccc(S(=O)(=O)NC(=O)c2ccc(N3CCC([C@@H](O)c4ccccc4-c4ccc(Cl)cc4)CC3)cc2)cc1S(=O)(=O)C(F)(F)F [AZD4320] + C[C@@H](Nc1cc(F)cc(F)c1)c1cc(C(=O)N(C)C)cc2c(=O)cc(N3CCOCC3)oc12 [AZD8186] (first compound max 1 µM, 7x7, partner max 3 µM) , I see its combination Emax listed as 0.417
